Could you please report measured furin cleavage Z-score for the items listed next?
- Study target: furin, P09958;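 note: purified furin at 1:10 enzyme:substrate in 50 mM HEPES pH 7.5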
- Sequence (P09958 whole entry): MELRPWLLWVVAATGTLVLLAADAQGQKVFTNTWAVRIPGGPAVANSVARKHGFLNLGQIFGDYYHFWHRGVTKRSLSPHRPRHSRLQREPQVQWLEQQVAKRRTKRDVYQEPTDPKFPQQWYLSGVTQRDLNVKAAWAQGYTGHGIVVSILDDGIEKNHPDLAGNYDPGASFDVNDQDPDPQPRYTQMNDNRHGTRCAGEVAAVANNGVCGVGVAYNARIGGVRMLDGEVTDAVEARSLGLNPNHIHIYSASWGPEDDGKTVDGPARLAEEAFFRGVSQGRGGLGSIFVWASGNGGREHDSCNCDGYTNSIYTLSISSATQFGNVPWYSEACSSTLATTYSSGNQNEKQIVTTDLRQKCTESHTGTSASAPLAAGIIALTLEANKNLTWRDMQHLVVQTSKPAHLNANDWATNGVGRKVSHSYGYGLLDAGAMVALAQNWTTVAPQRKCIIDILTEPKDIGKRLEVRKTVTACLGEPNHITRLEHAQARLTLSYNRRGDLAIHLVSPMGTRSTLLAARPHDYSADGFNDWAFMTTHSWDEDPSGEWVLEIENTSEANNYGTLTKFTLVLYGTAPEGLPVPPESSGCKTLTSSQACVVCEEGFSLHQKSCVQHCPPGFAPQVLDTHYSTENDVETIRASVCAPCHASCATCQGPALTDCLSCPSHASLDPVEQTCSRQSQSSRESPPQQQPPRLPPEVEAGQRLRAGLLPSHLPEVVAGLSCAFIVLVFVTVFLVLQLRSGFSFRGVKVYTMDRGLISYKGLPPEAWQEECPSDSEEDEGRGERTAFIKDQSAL
- Assay: furin cleavage Z-score vs untreated control; higher = more cleavage, active = 3.5 or more, inactive = 1 or less, 8 variable residues between constant flanks
- Settings: 15 min
This is one part of the list. How many sequences the whole screen found active is unknown.
Please respond with just the number, no unit label.

Input line: furin cleavage Z-score for CATELDGVRLAGNASASA [HC1222] ?
Output line: -0.317

Input line: furin cleavage Z-score for CARQNREKRFAGNASASA [FS-493] ?
Output line: 9.73

Input line: furin cleavage Z-score for CARQNRWKRQAGNASASA [FS-956] ?
Output line: 16.1

Input line: furin cleavage Z-score for CAMEEYSQHLAGNASASA [HC17] ?
Output line: 0.186
